Data origin: paper PMC2267168

# target_under_test: T1, N11-14:V5:His (Drosophila, UniProt P07207 447-605)
# T1 chain: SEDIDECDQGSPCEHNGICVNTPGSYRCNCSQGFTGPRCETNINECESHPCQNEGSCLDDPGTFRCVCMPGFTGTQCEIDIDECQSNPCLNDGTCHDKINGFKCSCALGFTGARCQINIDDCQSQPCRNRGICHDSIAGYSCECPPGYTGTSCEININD
# test_method_notes: ELISA
property: Kd (nM)
Report as a plain number; the unit nM is understood.

| binder | property | measured_number |
| --- | --- | --- |
| N21-25:Fc (Fc fusion) ETNIDDCVTNPCGNGGTCIDKVNGYKCVCKVPFTGRDCESKMDPCASNRCKNEAKCTPSSNFLDFSCTCKLGYTGRYCDEDIDECSLSSPCRNGASCLNVPGSYRCLCTKGYEGRDCAINTDDCASFPCQNGGTCLDGIGDYSCLCVDGFDGKHCETDINECLSQPCQNGATCSQYVNSYTCTCPLGFSGINCQTNDED | Kd | 2.77 |
| N26-30:Fc (Fc fusion, Fc-dimerised (Fc left out); secreted from S2 cells, O-fucosylation predicted. The forward primer (Q-T-N-D-E-D-C) overlaps the reverse primer ending at Asp1025, so the printed Gln1000 is Gln1020) QTNDEDCTESSCLNGGSCIDGINGYNCSCLAGYSGANCQYKLNKCDSNPCLNGATCHEQNNEYTCHCPSGFTGKQCSEYVDWCGQSPCENGATCSQMKHQFSCKCSAGWTGKLCDVQTISCQDAADRKGLSLRQLCNNGTCKDYGNSHVCYCSQGYAGSYCQKEIDECQSQPCQNGGTCRDLIGAYECQCRQGFQGQNCELNIDD | Kd | 2.81 |
| N22-27:Fc (Fc fusion) KMDPCASNRCKNEAKCTPSSNFLDFSCTCKLGYTGRYCDEDIDECSLSSPCRNGASCLNVPGSYRCLCTKGYEGRDCAINTDDCASFPCQNGGTCLDGIGDYSCLCVDGFDGKHCETDINECLSQPCQNGATCSQYVNSYTCTCPLGFSGINCQTNDEDCTESSCLNGGSCIDGINGYNCSCLAGYSGANCQYKLNKCDSNPCLNGATCHEQNNEYTCHCPSGFTGKQCS | Kd | 12.6 |

# next binder below
Tell me the measured Kd of N21-30:Fc (Fc fusion) ETNIDDCVTNPCGNGGTCIDKVNGYKCVCKVPFTGRDCESKMDPCASNRCKNEAKCTPSSNFLDFSCTCKLGYTGRYCDEDIDECSLSSPCRNGASCLNVPGSYRCLCTKGYEGRDCAINTDDCASFPCQNGGTCLDGIGDYSCLCVDGFDGKHCETDINECLSQPCQNGATCSQYVNSYTCTCPLGFSGINCQTNDEDCTESSCLNGGSCIDGINGYNCSCLAGYSGANCQYKLNKCDSNPCLNGATCHEQNNEYTCHCPSGFTGKQCSEYVDWCGQSPCENGATCSQMKHQFSCKCSAGWTGKLCDVQTISCQDAADRKGLSLRQLCNNGTCKDYGNSHVCYCSQGYAGSYCQKEIDECQSQPCQNGGTCRDLIGAYECQCRQGFQGQNCELNIDD , please.
5.42
